Values from PubChem BioAssay (NCI)

Tested on: TK-10 renal
method.summary: NCI-60 one-dose screen, 48 h
assay.setup: 10 µM unless noted
The panel holds about 83,000 compounds, 20% with a hit somewhere; the sample as a whole holds those more often. Calls of active or inactive are those of the source. The calls were made as follows: active = growth percent below 10; inactive = the rest.
The categories you may choose from are True for active, False for inactive

Could you please tell me the result logged for c1cc2cccc3c4cccc5cccc(c(c1)c23)c54 in this assay? False

Could you please tell me the result logged for CC1(C(=O)O)NC(C(=O)O)Cc2c1[nH]c1ccccc21 (stereo not drawn) in this assay? False

Could you please tell me the result logged for C/C(=N\NC(=O)c1ccccc1N)c1ccccc1O in this assay? False

Could you please tell me the result logged for CCC(=O)Oc1ccc(OC)cc1 in this assay? False

Could you please tell me the result logged for CCCCCCCCCCC1CO1 (stereo not drawn) in this assay? False

Could you please tell me the result logged for Nc1ncnc2[nH]ncc12 in this assay? True

Could you please tell me the result logged for CCOC(=O)c1ccc(NC(=S)P(=O)(c2ccccc2)c2ccccc2)cc1 in this assay? False

Could you please tell me the result logged for Cc1ccc(/C(C#N)=C/c2ccc3c(c2)OCO3)cc1 in this assay? False

Could you please tell me the result logged for N#CSc1cc(S(N)(=O)=O)ccc1N in this assay? False

Could you please tell me the result logged for CC1CC(O)C2C3(C)CCCC2(COC3=O)C12CCC1(CCOC1=O)O2 (stereo not drawn) in this assay? False

Could you please tell me the result logged for N/N=C(/Cc1ccccc1)NNC(N)=S in this assay? False

Could you please tell me the result logged for CCOc1ccc(/C=C/C(=O)c2ccccc2)cc1 in this assay? False

Could you please tell me the result logged for O=C(Nc1ccccc1)OCCc1ccccc1 in this assay? False

* * *

Test system: CCRF-CEM leukemia
method.summary: NCI-60 one-dose screen, 48 h
assay.setup: 10 µM
The panel holds about 83,000 compounds, 20% with a hit somewhere; the sample as a whole holds those more often. Activity calls are given as the source filed them. Rule for the calls: active = growth percent below 10; inactive = the rest.
The categories you may choose from are active, inactive

Could you please tell me the result logged for N#CCc1ccc([N+](=O)[O-])cc1 in this assay? inactive

Could you please tell me the result logged for CSc1[nH]c(=O)ncc1F in this assay? inactive

Could you please tell me the result logged for CCC(C#N)(CC)c1ccccc1 in this assay? inactive

Could you please tell me the result logged for CC(=O)NC(N)=S in this assay? inactive

Could you please tell me the result logged for O=C(O)c1ccccc1NCc1ccco1 in this assay? inactive

Could you please tell me the result logged for Oc1ccc2c(c1)OCC1(O)Cc3cc(O)c(O)cc3C21 (centres undefined) in this assay? inactive

Could you please tell me the result logged for C=CC(O)CCC (centres undefined) in this assay? inactive

Could you please tell me the result logged for CC1=CC(C)(C)NC(=S)N1c1ccc(S(=O)(=O)O)c2cccc(S(=O)(=O)O)c12 in this assay? inactive

Could you please tell me the result logged for CC1(C(N)=O)CCC(C(=O)O)C1(C)C (centres undefined) in this assay? inactive

Could you please tell me the result logged for O=C(O)c1ccnc(Br)c1 in this assay? inactive

Could you please tell me the result logged for CC(C)=C(NC(=O)c1ccccc1)C(=O)O in this assay? active

Could you please tell me the result logged for Cc1cc(OCCO)cc(C)c1Cl in this assay? inactive

Could you please tell me the result logged for Cc1cccc(C(=O)N(C(C)C)C(C)C)c1 in this assay? inactive

Could you please tell me the result logged for COc1cccc(Sc2ccc([N+](=O)[O-])c3no[n+]([O-])c23)c1 in this assay? active

* * *

Test system: ACHN renal
method.summary: NCI-60 one-dose screen, 48 h (100 = growth as untreated, 0 = no growth, -100 = all killed)
assay.setup: 10 µM
The panel holds about 83,000 compounds, 20% with a hit somewhere; the sample as a whole holds those more often. Where a SMILES comes first, the peptide text is derived from it. Bridges are numbered along the chain shown (N, C = ends). [ ]: non-standard residue; d: D form. The star is where a group is joined. ξ: configuration not given here. ξNMePhe(4-NMe2) = CNC(Cc1ccc(N(C)C)cc1)C(=O)O; Picolinoyl(3-OH) = O=C(c1ncccc1O)*; ξPip(4-oxo) = O=C1CCNC(C(=O)O)C1; Phg = N[CH](C(=O)O)c1ccccc1; Abu = CC[CH](N)C(=O)O
measured.quantity: growth (%)
Only the number, expressed in %, is required.

What value of growth has been recorded for this entry: S=c1[nH]ccn1-c1ccccc1Cl 101

What value of growth has been recorded for this entry: CC1(C)N=C(N)N=C(N)N1c1cccc(Br)c1 30.2

What value of growth has been recorded for this entry: Cc1cc2nc(CO)[nH]c2cc1C 105

What value of growth has been recorded for this entry: COc1cc(C2NC(=O)C(C#N)=C(Nc3cccc(C)c3)S2)ccc1O (stereo not drawn) 101

What value of growth has been recorded for this entry: CC1OC(Oc2c(-c3ccc(O)c(O)c3)oc3cc(O)cc(O)c3c2=O)C(O)C(O)C1O (stereo not drawn) 113

What value of growth has been recorded for this entry: CC(=O)OCCO 105

What value of growth has been recorded for this entry: c1cc[n+](C2c3ccccc3C([n+]3ccccc3)c3ccccc32)cc1 (stereo not drawn) 91.8

What value of growth has been recorded for this entry: CC(=O)CC(=O)N(C)C 103

What value of growth has been recorded for this entry: COc1cc2nn(-c3ccccc3N)nc2cc1OC 109

What value of growth has been recorded for this entry: O=S(=O)(O)CC(O)CN1CCN(CCO)CC1 (stereo not drawn) 111

What value of growth has been recorded for this entry: CCOC(=O)c1ccc(NC(=S)P(=O)(c2ccccc2)c2ccccc2)cc1 102

What value of growth has been recorded for this entry: CC1(C)N=C(N)N=C(N)N1c1ccc(Cl)cc1 67.4

What value of growth has been recorded for this entry: Cc1ccccc1C1N=C2Oc3ccccc3C=C2C(=O)N1 (stereo not drawn) 50.6

What value of growth has been recorded for this entry: CCC1NC(=O)C(NC(=O)c2ncccc2O)C(C)OC(=O)C(c2ccccc2)NC(=O)C2CC(=O)CCN2C(=O)C(Cc2ccc(N(C)C)cc2)N(C)C(=O)C2CCCN2C1=O (stereo not drawn) (tested in a mixture with another compound) ({Picolinoyl(3-OH)}-T[Abu]P[ξNMePhe(4-NMe2)][ξPip(4-oxo)][Phg]; ester 1-C; configuration not given here) 47.5

What value of growth has been recorded for this entry: CCO/C=C1\SC(=S)N(c2cccc(C)c2)C1=O 106

What value of growth has been recorded for this entry: CNS(=O)(=O)c1ccc(Cl)c(Cl)c1 99.5

What value of growth has been recorded for this entry: O=[N+]([O-])c1cccc(C(F)(F)F)c1 102

What value of growth has been recorded for this entry: Cc1cc(=O)cc(C)n1-c1ccccc1 102

What value of growth has been recorded for this entry: CCN(CC)CCNc1ccc(CO)c2sc3ccccc3c(=O)c12 20.4

What value of growth has been recorded for this entry: CSC(=N\N=C\c1ccc(N(C)C)cc1)/N=C/N(C)C 101

What value of growth has been recorded for this entry: COC(=O)c1ccccc1Br 105

What value of growth has been recorded for this entry: O=[N+]([O-])c1ccc(N=Nc2ccc(O)c3ccccc23)cc1 47.3

What value of growth has been recorded for this entry: O=C1C=CC(=O)N1c1ccc(I)cc1Cl 104

* * *

Test system: OVCAR-8 ovarian
method.summary: NCI-60 one-dose screen, 48 h (100 = growth as untreated, 0 = no growth, -100 = all killed)
assay.setup: 10 µM
Compounds without any hit were thinned out: in the full panel of roughly 83,000, 20% have a hit.
Provide the recorded growth for the entries that follow.
Only the number, expressed in %, is required.

Enter reported growth observed with OVCAR-8 ovarian for O=c1cc(-c2ccccc2)[nH]c(=S)[nH]1 111

Enter reported growth observed with OVCAR-8 ovarian for O=C(N/N=C\c1cc(Br)cc(Br)c1O)N/N=C/c1cc(Br)cc(Br)c1O 55.5

Enter reported growth observed with OVCAR-8 ovarian for CC1(O)CCCCC1O (configuration not stated) 105

Enter reported growth observed with OVCAR-8 ovarian for N/N=C(/Cc1ccccc1)NNC(N)=S 108

Enter reported growth observed with OVCAR-8 ovarian for CC(=O)OCC(=O)[C@@]1(O)CC[C@H]2[C@@H]3CC[C@@H]4C[C@H](O)CC[C@]4(C)[C@H]3C(=O)C[C@@]21C 107

Enter reported growth observed with OVCAR-8 ovarian for Cc1ccc(/C(C#N)=C/c2ccc3c(c2)OCO3)cc1 94

Enter reported growth observed with OVCAR-8 ovarian for COc1ccccc1C1OC2=Nc3cc(C)c(C)cc3NC2C1=O (configuration not stated) 69

Enter reported growth observed with OVCAR-8 ovarian for CC(C)CCOC(=O)c1ccccc1 99.4

Enter reported growth observed with OVCAR-8 ovarian for COC(=O)Nc1cccc(Cl)c1OC 106

Enter reported growth observed with OVCAR-8 ovarian for Cc1cc(C)c(N)c(S(=O)(=O)O)c1 104

Enter reported growth observed with OVCAR-8 ovarian for CC1=NN(c2ccccc2)C(=O)/C1=C\N1CC(=O)NC1=S 102

Enter reported growth observed with OVCAR-8 ovarian for CC1C(=O)c2ccccc2CC1C(=O)O (configuration not stated) 97
